B1: LINE1-mini (parent)
chain: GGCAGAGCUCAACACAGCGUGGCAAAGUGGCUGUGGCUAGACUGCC

- Variants of: B1
- Assay Details: self-cleavage, relative activity (ratio to wild type); higher = more cleavage; in vitro, sequencing; the parent is a self-cleaving ribozyme
Threshold rule: self-cleavage greater than or equal to 0.1 is Criterion met; below that, Criterion not met.

G27C G29A = Criterion met
C3A C23U = Criterion met
C31G C42U = Criterion not met
U38G A41U = Criterion not met
G27U U28C = Criterion met
G2A C46U = Criterion met
G35C U43G = Criterion not met
U9A A41U = Criterion met

Req: Quick check, self-cleavage >= 0.1? C10G U38C
Resp: Criterion not met

Req: Quick check, self-cleavage >= 0.1? C18A U28A
Resp: Criterion met

Req: Quick check, self-cleavage >= 0.1? G7A U20A
Resp: Criterion met
